Target: Ba/F3 stable cells (Homo sapiens, UniProt P00533, DUP768-770, cells depend on it)
Construct: EC50 Ba/F3-EGFR D770-N771insSVD; other: Ba/F3-EGFR D770-N771insSVD cells, 72 h, CCK-8
Sequence (P00533 with tags, fused parts or gaps DUP768-770): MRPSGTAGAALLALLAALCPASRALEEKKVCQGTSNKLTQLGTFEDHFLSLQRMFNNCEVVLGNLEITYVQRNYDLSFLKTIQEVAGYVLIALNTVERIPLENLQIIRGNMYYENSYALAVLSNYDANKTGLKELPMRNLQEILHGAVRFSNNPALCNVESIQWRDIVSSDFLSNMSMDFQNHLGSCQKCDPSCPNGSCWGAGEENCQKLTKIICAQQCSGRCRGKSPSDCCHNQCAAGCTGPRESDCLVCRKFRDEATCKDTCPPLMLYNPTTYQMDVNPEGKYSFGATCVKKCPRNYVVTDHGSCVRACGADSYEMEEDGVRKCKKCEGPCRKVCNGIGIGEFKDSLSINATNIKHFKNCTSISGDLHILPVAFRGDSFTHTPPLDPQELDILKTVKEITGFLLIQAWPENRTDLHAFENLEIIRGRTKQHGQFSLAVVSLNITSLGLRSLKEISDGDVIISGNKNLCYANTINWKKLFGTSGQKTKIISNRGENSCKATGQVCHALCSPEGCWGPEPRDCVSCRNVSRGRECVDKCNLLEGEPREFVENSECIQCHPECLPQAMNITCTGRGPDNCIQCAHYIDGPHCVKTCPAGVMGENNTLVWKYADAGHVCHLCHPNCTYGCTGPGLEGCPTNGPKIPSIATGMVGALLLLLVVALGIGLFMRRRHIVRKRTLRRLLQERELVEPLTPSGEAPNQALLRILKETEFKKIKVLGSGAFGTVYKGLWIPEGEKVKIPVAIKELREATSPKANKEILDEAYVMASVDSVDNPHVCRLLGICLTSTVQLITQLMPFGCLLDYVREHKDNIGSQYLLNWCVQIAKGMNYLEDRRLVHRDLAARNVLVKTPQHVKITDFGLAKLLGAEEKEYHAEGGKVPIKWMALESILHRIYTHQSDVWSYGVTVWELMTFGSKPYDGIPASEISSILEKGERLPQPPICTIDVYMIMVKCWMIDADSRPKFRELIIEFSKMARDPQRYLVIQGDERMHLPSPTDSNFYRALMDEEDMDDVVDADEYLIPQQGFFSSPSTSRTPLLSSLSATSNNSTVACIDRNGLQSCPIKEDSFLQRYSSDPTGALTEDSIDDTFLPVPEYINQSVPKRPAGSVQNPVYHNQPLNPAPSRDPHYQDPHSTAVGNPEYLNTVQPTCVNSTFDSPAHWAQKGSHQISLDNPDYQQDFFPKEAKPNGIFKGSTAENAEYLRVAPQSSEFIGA
Assay: EC50 assay: Ba/F3 stable cell proliferation (CCK-8, 72 h)
Conditions: Ba/F3-EGFR D770-N771insSVD cells
Experimental: 4,000 Ba/F3 stable cells/90 μL/well were plated onto 96-well cell culture plate (Grenier, Cat.No. 655180) and incubated at 37° C. with a humidified atmosphere of 5% CO2 for 2 h. Then the cells were treated with 10 μL compounds at serial titration. […] 10 μL the cell proliferation reagent CCK-8 (Dojindo, Cat.No. CK04 1000T) was added into each well and incubated the plate at 37° C. for 4 hours, the GD value was measured by SPECTRAmax plus (Molecular Devices) at 450 nm. […]
pEC50: −log10 of the molar value.
metric name: pEC50

Use the examples below as a reference point.
C=CC(=O)N1CCC(Oc2cc3c(Nc4ccc(Cl)c5ccccc45)ncnc3cc2OC)CC1 [Compound 164]: 6.00 to 6.70
C=CC(=O)N1CC(c2cc3c(Nc4ccc(Cl)c(Cl)c4F)ncnc3cc2OCCN2CCOCC2)C1 [Compound 28]: 6.00 to 6.70
C=CC(=O)N1CCC(Oc2cc3c(NC(C(=O)O)c4cccc(Cl)c4)ncnc3cc2OC)CC1 (centres unmarked) [Compound 126]: < 6.00
C=CC(=O)N[C@H]1C[C@H](Oc2cc3c(Nc4ccc(Cl)c(Cl)c4F)ncnc3cc2OC)C1 [Compound 79]: < 6.00
C=CC(=O)N1CCC(Oc2cc3c(OCc4cccc(Cl)c4)ncnc3cc2OC)CC1 [Compound 107]: 6.00 to 6.70
C=CC(=O)N1CCC(Oc2cc3c(NC(C(N)=O)c4cccc(Cl)c4)ncnc3cc2OC)CC1 (centres unmarked) [Compound 127]: < 6.00
C=CC(=O)N1CCC(Oc2cc3c(Nc4ccc5c(c4)OCO5)ncnc3cc2OC)CC1 [Compound 152]: 6.00 to 6.70

We next turn to a different compound, shown below.
[Q] Report pEC50 for C=CC(=O)N1CC=C(c2c(OC)cc3ncnc4c3c2N(C)C(=O)N4c2ccc(Cl)c(Cl)c2F)CC1 [Compound 206] please.
[A] < 6.00

====

// reported pEC50 per item
Biological target: Ba/F3 stable cells (Homo sapiens, UniProt P00533, DUP771-773, cells depend on it)
Construct: EC50 Ba/F3-EGFR H773-V774insNPH; other: Ba/F3-EGFR H773-V774insNPH cells, 72 h, CCK-8
Sequence (P00533 with tags, fused parts or gaps DUP771-773): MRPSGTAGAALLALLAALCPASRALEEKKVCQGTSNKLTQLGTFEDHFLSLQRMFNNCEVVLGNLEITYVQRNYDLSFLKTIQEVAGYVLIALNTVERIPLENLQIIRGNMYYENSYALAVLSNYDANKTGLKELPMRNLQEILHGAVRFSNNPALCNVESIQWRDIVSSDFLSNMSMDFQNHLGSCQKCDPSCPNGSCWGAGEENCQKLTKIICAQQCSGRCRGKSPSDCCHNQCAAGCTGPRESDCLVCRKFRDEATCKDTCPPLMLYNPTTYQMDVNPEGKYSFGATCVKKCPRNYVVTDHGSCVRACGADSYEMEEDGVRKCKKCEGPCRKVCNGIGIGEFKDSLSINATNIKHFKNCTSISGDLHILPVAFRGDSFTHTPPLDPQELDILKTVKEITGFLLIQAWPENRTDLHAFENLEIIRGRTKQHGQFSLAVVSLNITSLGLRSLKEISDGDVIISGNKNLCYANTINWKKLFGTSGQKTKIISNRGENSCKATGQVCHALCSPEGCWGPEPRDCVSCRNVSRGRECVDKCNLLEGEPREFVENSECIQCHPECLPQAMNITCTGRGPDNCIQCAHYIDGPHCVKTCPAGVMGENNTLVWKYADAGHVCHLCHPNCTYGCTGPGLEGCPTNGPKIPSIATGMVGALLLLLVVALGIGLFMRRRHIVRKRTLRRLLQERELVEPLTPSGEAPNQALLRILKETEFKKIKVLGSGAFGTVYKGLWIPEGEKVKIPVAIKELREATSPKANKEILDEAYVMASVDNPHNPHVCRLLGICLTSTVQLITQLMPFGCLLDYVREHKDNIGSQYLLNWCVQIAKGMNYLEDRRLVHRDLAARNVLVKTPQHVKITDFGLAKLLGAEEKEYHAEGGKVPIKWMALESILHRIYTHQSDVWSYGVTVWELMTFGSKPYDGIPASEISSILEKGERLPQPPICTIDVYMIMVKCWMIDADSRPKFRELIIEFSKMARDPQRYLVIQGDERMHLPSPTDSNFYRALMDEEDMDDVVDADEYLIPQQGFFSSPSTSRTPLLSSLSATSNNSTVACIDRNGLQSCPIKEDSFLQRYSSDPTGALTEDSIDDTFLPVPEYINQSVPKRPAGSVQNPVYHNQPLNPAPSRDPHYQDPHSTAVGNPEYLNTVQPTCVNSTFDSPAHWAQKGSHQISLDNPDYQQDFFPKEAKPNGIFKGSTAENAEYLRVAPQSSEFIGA
Test: EC50 assay: Ba/F3 stable cell proliferation (CCK-8, 72 h)
Conditions: Ba/F3-EGFR H773-V774insNPH cells
Procedure: 4,000 Ba/F3 stable cells/90 μL/well were plated onto 96-well cell culture plate (Grenier, Cat.No. 655180) and incubated at 37° C. with a humidified atmosphere of 5% CO2 for 2 h. Then the cells were treated with 10 μL compounds at serial titration. […] 10 μL the cell proliferation reagent CCK-8 (Dojindo, Cat.No. CK04 1000T) was added into each well and incubated the plate at 37° C. for 4 hours, the GD value was measured by SPECTRAmax plus (Molecular Devices) at 450 nm. […]
pEC50: −log10 of the molar value.

Here is how some molecules turned out for pEC50.
C=CC(=O)N1CCC(Oc2cc3c(NCc4cccc(Br)c4)ncnc3cc2OC)CC1: ≥ 6.70
C=CC(=O)NC1CC(Oc2cc3c(Nc4ccc(F)c(Cl)c4)ncnc3cc2OC)C1 (centres unmarked): < 6.00
C=CC(=O)N1CC(c2cc3c(Nc4ccc(Cl)c5ccccc45)ncnc3cc2OC)C1: 6.00 to 6.70
C#CC(=O)N1C2CCC1CC(Oc1cc3c(Nc4cccc5c4CCC5)ncnc3cc1OC)C2 (centres unmarked): ≥ 6.70
C=CS(=O)(=O)N1CCC(Oc2c(OC)cc3ncnc4c3c2NC(=O)N4c2ccc(Cl)c(Cl)c2)CC1: ≥ 6.70
C=CC(=O)N1CCC(Oc2cc3c(NCc4cc(Cl)cc(Cl)c4)ncnc3cc2OC)CC1: < 6.00

Below: the item to evaluate.
[Q] Give the reported pEC50 for C#CC(=O)NC1CC(Oc2cc3c(Nc4cccc5ccccc45)ncnc3cc2OC)C1 (centres unmarked) (system: Ba/F3 stable cells (Homo sapiens, UniProt P00533, DUP771-773, cells depend on it)).
[A] ≥ 6.70

====

target: Ba/F3 stable cells (Homo sapiens, UniProt P00533, DUP771-773, cells depend on it); construct: EC50 Ba/F3-EGFR H773-V774insNPH; other: Ba/F3-EGFR H773-V774insNPH cells, 72 h, CCK-8; assay: EC50 assay: Ba/F3 stable cell proliferation (CCK-8, 72 h); settings: Ba/F3-EGFR H773-V774insNPH cells
Catalogue of EC50 values

Use the examples below as a reference point.
C#CC(=O)N1CCCC(c2ccc3ncnc(Nc4ccc(Cl)c(Cl)c4F)c3c2)C1 (stereo not shown): ≤ 0.2 µM
C=C(F)C(=O)N1CCC(Oc2cc3c(Nc4ccc(Cl)c(Cl)c4F)ncnc3cc2OC)CC1: 0.2 to 1 µM
C=CC(=O)N[C@H]1C[C@@H](Oc2cc3c(Nc4ccc(Cl)c(Cl)c4F)ncnc3cc2OCCO)C1: 0.2 to 1 µM

[Q] Notebook: pull reported EC50 for Ba/F3 stable cells (Homo sapiens, UniProt P00533, DUP771-773, cells depend on it), entry `C#CC(=O)N1CC(c2cc3c(Nc4ccc(OCc5ccccc5)c(Cl)c4F)ncnc3cc2OC)C1`
[A] > 1 µM

====

target: Ba/F3 stable cells (Homo sapiens, UniProt P00533, DUP767-769, cells depend on it); construct: EC50 Ba/F3-EGFR V769-D770insASV; other: Ba/F3-EGFR V769-D770insASV cells, 72 h, CCK-8; assay: EC50 assay: Ba/F3 stable cell proliferation (CCK-8, 72 h); details: Ba/F3-EGFR V769-D770insASV cells
Sequence (P00533 with tags, fused parts or gaps DUP767-769): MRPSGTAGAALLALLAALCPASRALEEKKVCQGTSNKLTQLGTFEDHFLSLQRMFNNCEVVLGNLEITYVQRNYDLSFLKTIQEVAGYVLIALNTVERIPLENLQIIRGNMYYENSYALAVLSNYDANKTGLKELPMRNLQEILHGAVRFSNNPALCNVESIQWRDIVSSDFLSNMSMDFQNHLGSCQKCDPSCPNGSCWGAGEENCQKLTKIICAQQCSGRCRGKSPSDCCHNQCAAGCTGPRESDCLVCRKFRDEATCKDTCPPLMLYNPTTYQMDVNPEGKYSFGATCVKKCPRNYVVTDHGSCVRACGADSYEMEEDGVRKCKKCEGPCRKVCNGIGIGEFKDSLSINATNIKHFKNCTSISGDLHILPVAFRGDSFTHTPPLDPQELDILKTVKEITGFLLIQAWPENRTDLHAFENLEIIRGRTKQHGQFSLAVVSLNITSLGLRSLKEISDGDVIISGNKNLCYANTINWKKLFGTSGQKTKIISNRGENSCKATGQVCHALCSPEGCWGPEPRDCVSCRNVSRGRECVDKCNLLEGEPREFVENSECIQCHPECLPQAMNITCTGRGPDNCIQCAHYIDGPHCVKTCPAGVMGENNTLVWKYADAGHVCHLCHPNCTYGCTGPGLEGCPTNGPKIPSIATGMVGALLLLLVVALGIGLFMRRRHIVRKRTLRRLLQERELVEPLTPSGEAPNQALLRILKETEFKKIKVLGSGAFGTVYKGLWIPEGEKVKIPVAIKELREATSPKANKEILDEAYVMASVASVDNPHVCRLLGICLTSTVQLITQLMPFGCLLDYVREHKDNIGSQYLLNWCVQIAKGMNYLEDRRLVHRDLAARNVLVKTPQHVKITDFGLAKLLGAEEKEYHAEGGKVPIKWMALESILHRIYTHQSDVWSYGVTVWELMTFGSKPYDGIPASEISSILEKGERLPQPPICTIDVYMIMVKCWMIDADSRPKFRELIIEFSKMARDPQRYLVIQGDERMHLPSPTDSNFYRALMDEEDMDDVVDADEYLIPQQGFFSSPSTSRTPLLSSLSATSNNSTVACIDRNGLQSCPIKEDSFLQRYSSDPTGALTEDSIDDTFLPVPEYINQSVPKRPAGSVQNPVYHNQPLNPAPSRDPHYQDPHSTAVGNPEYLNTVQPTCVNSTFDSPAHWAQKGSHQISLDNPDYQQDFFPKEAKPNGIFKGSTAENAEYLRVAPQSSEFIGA
EC50: recorded values

C=CC(=O)NC1COc2c(-c3cnc4ccccc4c3)c3c(N)ncnc3n2C1 (stereo not shown) [Compound 228]: 200 to 1000 nM
C=CC(=O)N1CCC(Oc2cc3c(Nc4ccc5cn[nH]c5c4)ncnc3cc2OC)CC1 [Compound 137]: 200 to 1000 nM
C=CC(=O)N1CC(c2cc3c(Nc4ccc(OCc5ccccc5)c(Cl)c4F)ncnc3cc2OC)C1 [Compound 2]: > 1000 nM
C=CC(=O)N1CCC(Oc2cc3c(NC(CCO)c4cccc(Cl)c4)ncnc3cc2OC)CC1 (stereo not shown) [Compound 131]: ≤ 200 nM

[Q] Entry C=CC(=O)N1CCC(Oc2cc3c(N[C@H](C)c4ccc(F)cc4)ncnc3cc2OC)CC1 [Compound 173] , system Ba/F3 stable cells (Homo sapiens, UniProt P00533, DUP767-769, cells depend on it): what EC50 was measured?
[A] ≤ 200 nM

[Q] And C=CC(=O)N1C2CCC1CC(Oc1cc3c(Nc4ccc5ccccc5c4)ncnc3cc1OC)C2 (stereo not shown) [Compound 180] ?
[A] ≤ 200 nM

[Q] Note, next up: COc1cc2ncnc(Nc3ccc(Cl)c(Cl)c3F)c2cc1OC1CC(NC(=O)/C=C/CN(C)C)C1 (stereo not shown) [Compound 42]
[A] ≤ 200 nM

[Q] Moving on to the next compound: C=CC(=O)N1CCC(Oc2c(OC)cc3ncnc4c3c2N(C)C(=O)N4c2ccc(Cl)c(Cl)c2F)CC1 [Compound 200]
[A] 200 to 1000 nM

====

target: Ba/F3 stable cells (Homo sapiens, UniProt P04626, DUP772-775, cells depend on it); construct: EC50 Ba/F3-HER2 A775-G776insYVMA; other: Ba/F3-HER2 A775-G776insYVMA cells, 72 h, CCK-8; test: EC50 assay: Ba/F3 stable cell proliferation (CCK-8, 72 h); settings: Ba/F3-HER2 A775-G776insYVMA cells
Sequence (P04626 with tags, fused parts or gaps DUP772-775): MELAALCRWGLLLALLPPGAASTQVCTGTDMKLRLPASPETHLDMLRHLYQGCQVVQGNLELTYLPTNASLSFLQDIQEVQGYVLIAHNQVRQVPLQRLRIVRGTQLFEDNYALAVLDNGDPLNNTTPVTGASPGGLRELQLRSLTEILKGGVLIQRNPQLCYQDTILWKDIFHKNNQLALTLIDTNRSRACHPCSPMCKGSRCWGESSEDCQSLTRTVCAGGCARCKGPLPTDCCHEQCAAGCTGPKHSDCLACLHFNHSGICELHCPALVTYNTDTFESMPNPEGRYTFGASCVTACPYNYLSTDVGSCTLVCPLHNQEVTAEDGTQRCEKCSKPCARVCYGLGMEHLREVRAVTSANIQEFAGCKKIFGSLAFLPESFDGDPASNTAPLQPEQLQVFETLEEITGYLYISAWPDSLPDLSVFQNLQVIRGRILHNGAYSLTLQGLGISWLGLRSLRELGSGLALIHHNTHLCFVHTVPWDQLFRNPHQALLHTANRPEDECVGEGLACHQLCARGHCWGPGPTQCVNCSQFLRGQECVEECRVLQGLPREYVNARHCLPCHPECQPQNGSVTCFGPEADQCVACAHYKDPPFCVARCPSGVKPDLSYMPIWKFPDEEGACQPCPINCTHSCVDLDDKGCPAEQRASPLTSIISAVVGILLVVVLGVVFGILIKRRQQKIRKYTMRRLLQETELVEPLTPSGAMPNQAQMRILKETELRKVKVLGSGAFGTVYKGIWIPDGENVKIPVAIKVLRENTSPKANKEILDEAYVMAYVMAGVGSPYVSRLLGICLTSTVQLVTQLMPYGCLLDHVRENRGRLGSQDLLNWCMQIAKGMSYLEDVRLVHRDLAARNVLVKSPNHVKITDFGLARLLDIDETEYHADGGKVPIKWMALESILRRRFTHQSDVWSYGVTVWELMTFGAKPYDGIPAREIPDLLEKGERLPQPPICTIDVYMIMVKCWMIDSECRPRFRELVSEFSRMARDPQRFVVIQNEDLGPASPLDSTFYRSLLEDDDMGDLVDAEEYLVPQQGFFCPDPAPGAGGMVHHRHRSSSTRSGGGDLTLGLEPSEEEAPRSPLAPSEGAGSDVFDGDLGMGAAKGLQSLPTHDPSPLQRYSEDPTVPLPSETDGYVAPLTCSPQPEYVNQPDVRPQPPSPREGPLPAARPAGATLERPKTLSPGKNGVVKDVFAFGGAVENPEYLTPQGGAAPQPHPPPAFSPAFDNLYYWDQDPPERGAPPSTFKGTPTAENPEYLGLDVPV
pEC50: −log10 of the molar value.
metric name: pEC50

C=CC(=O)N1CCC(Oc2cc3c(Nc4cccc5cn[nH]c45)ncnc3cc2OC)CC1 [Compound 139]: < 6.00
C=CC(=O)N1CCC(Oc2c(OC)cc3ncnc(Nc4ccc(Cl)c(Cl)c4F)c3c2[N+](=O)[O-])CC1 [Compound 208]: < 6.00
C=CC(=O)NC1CC(Oc2cc3c(Nc4cccc(Cl)c4F)ncnc3cc2OC)C1 (stereo not shown) [Compound 74]: ≥ 6.70

[Q] # get_value(readout= pEC50, system= Ba/F3 stable cells (Homo sapiens, UniProt P04626, DUP772-775, cells depend on it)) for C=C(F)C(=O)N1CC(c2cc3c(Nc4ccc(Cl)c(Cl)c4F)ncnc3cc2OC)C1 [Compound 38]
[A] < 6.00

====

target: Ba/F3 stable cells (Homo sapiens, UniProt P00533, DUP768-770, cells depend on it); construct: EC50 Ba/F3-EGFR D770-N771insSVD; other: Ba/F3-EGFR D770-N771insSVD cells, 72 h, CCK-8; experiment: EC50 assay: Ba/F3 stable cell proliferation (CCK-8, 72 h); conditions: Ba/F3-EGFR D770-N771insSVD cells
EC50 for assorted molecules

C#CC(=O)N[C@H]1C[C@H](Oc2cc3c(Nc4cccc5c4CCC5)ncnc3cc2OC)C1: 200 to 1000 nM
C=CC(=O)N1CC(c2cc3c(NCc4ccc(F)cc4)ncnc3cc2OC)C1: > 1000 nM
C=CC(=O)NCC1COc2cc3ncnc(Nc4ccc(Cl)c(Cl)c4F)c3cc21 (centres unmarked): 200 to 1000 nM
C=CC(=O)N1CC(c2cc3c(Nc4ccc(Cl)c(Cl)c4F)ncnc3cc2OCCO)C1: ≤ 200 nM
C=CC(=O)N1CCC(Oc2cc3c(NCc4cccc(C#N)c4)ncnc3cc2OC)CC1: > 1000 nM
[2H]C([2H])([2H])n1cn/c(=N\c2ccc(Cl)c(Cl)c2F)c2cc3c(cc21)OCC3CNC(=O)C=C (centres unmarked): > 1000 nM

[Q] Please report the recorded EC50 for C#CC(=O)NC1CC(Oc2cc3c(Nc4cccc5ccccc45)ncnc3cc2OC)C1 (centres unmarked) .
[A] 200 to 1000 nM

[Q] Same lookup for C=CC(=O)N1CCC(Oc2cc3c(NC(CC(=O)O)c4cccc(Cl)c4)ncnc3cc2OC)CC1 (centres unmarked) , please.
[A] > 1000 nM
